- Test system: TAB109
- experimental details: qHTS profiling for inhibitors of Plasmodium falciparum proliferation (AID 504749); further: nearly all actives have a fitted effect of over 60% in size
- reported conditions: P. falciparum in erythrocytes, SYBR Green DNA, 72 h; series mostly up to 28.7 µM
Results filed as inconclusive are left out. Calls of active or inactive are those of the source. The call rests on the fitted dose curve; in most records, active means well fitted inhibition curve with a large enough effect; inconclusive means small, poorly fitted or top-dose-only effect; inactive means flat fitted curve, though single readings scatter.
Mark one answer only. Choices: active, inactive

molecule	assigned category
CC(=O)Oc1ccc(C(c2ccc(OC(C)=O)cc2)c2ccccn2)cc1	inactive
Cc1cc(N)c2cc(NC(=O)Nc3ccc4nc(C)cc(N)c4c3)ccc2n1	active
Oc1ccc(O)cc1	inactive
COC1=CC(=O)C[C@@H](C)[C@]12Oc1c(Cl)c(OC)cc(OC)c1C2=O	inactive
O=C(CCCN1CCC(O)(c2ccc(Br)cc2)CC1)c1ccc(F)cc1	active

Dear all, I need the recorded test outcome for CCCCCCCCCCCCCCCCCC(=O)OCC(O)CO (configuration not stated) , thank you.
inactive

// return assay outcome for COc1c2occc2c(OC)c2c(=O)cc(C)oc12
inactive
